- measured on: IDH2 R140Q (Homo sapiens, UniProt P48735, R140Q)
- Sequence (P48735 40-452 R140Q): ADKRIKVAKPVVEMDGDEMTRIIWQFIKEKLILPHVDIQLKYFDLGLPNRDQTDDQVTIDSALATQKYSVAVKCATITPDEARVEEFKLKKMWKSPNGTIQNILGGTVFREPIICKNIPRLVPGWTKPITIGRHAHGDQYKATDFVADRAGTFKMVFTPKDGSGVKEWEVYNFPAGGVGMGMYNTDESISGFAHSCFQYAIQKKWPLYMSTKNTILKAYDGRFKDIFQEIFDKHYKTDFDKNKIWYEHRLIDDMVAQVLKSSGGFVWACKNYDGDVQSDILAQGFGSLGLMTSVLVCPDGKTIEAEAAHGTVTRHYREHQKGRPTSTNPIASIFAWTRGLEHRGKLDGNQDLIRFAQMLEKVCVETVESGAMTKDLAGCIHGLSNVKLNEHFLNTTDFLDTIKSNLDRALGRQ
- method summary: IDH2 R140Q enzymatic assay (cofactor depletion assay, diaphorase/resazurin readout)
- Type: biochemical
- recorded conditions: read-out: Enz R140Q
Listed next: entries and their corresponding IC50.

Here is how some compounds turned out for IC50.
I'm curious: which IC50 was measured for CC(C)Nc1nc(Nc2ccnc(C(F)(F)F)c2)nc(C2CCNC(=O)C2)n1 (stereo not shown) tested on IDH2 R140Q (Homo sapiens, UniProt P48735, R140Q)?
1000 to 10000 nM

What do you have for CC1CC(C)CC(c2nc(Nc3ccnc(C(F)(F)F)c3)nc(NC(C)C)n2)C1 (stereo not shown) ?
100 to 1000 nM

What do you have for CC(C)Nc1nc(Nc2ccnc(C(F)(F)F)c2)nc(C2=CC(=O)NCC2)n1 ?
< 100 nM

What do you have for CC(C)Nc1nc(Nc2ccnc(C(F)(F)F)c2)nc(C2CCCC2)n1 ?
< 100 nM

Continuing:
I'm curious: which IC50 was measured for CC(C)Nc1nc(Nc2ccnc(C(F)(F)F)c2)nc(C(C)(C)C)n1 tested on IDH2 R140Q (Homo sapiens, UniProt P48735, R140Q)?
100 to 1000 nM

What do you have for CC(C)Nc1nc(Nc2ccnc(C(F)(F)F)c2)nc(C2CCCCC2)n1 ?
< 100 nM

What do you have for CC(C)Nc1nc(Nc2ccnc(C(F)(F)F)c2)nc(C2CCC2)n1 ?
< 100 nM

What do you have for CC(C)Nc1nc(Nc2ccnc(C(F)(F)F)c2)nc(C2=CC(O)CCC2)n1 (stereo not shown) ?
< 100 nM

What do you have for CC(C)Nc1nc(Nc2ccnc(C(F)(F)F)c2)nc(C2CCCC(O)C2)n1 (stereo not shown) ?
< 100 nM

What do you have for CC(C)Nc1nc(Nc2ccnc(C(F)(F)F)c2)nc(C2=CCCCC2)n1 ?
< 100 nM

What do you have for CC(C)Nc1nc(Nc2ccnc(C(F)(F)F)c2)nc(C2CCCC(=O)C2)n1 (stereo not shown) ?
100 to 1000 nM

What do you have for CC(C)Nc1nc(Nc2ccnc(C(F)(F)F)c2)nc(C2=CC(=O)CCC2)n1 ?
100 to 1000 nM

What do you have for CC1CCCC(c2nc(Nc3ccnc(C(F)(F)F)c3)nc(NC(C)C)n2)C1 (stereo not shown) ?
< 100 nM
